System: MOLT-4
assay.summary: NCI tumour cell line growth inhibition, 48 h
Calls of active or inactive are those of the source. No stated cut-off is given here; in the data, active = GI50 up to about 1.1 µM and inactive = higher.
molecules and their reported GI50

Example molecules with recorded GI50:
{"columns": ["molecule", "experimental.value"],
 "data": [
  ["CCN1CCC(O)(/C=C/c2cccc(C)c2)C(C(=O)/C=C/c2cccc(C)c2)C1 (stereo not given)", "2.43 µM (inactive)"],
  ["COC(=O)c1ccc(/N=N/N(C)COc2ccc([N+](=O)[O-])cc2)cc1", "> 100 µM (inactive)"],
  ["COC(=O)C1=CCC2c3[nH]c4ccccc4c3CCN2C1 (stereo not given)", "> 354 µM (inactive)"],
  ["CC(C)(C)c1ccc(-n2c3nc(=O)n(-c4ccccc4C(F)(F)F)c(=O)c-3cc3ccccc32)cc1", "17.9 µM (inactive)"],
  ["CCOC(=O)NNC(=O)C1CSC(c2ccccc2)N1C(C)=O (stereo not given)", "> 100 µM (inactive)"]
]}

Param readout= GI50; system= MOLT-4; entry= `COc1ccc(/C=C/c2cc(OC)cc(OC)c2)cc1` ; returns value.
4.51 µM (inactive)

Param readout= GI50; system= MOLT-4; entry= `O=C1CSc2nc3ccccc3n2/C=N\N1` ; returns value.
> 100 µM (inactive)

Param readout= GI50; system= MOLT-4; entry= `Cc1cc(OC(=O)Nc2ccc(Cl)cc2)ccc1C(=S)Nc1ccccc1` ; returns value.
29.6 µM (inactive)

Param readout= GI50; system= MOLT-4; entry= `CCN(CC)CCNC(=O)c1ccc(C)c(OCc2ccccc2)c1[N+](=O)[O-]` ; returns value.
28.7 µM (inactive)

Param readout= GI50; system= MOLT-4; entry= `C[C@]12CCC(=O)C(O)=C1CC[C@@H]1[C@@H]2CC[C@]2(C)C(=O)CC[C@@H]12` ; returns value.
> 75.9 µM (inactive)
